Provide the recorded composite z-score for the entries that follow.
# System: Human papillomavirus type 1a protein E7 (residues 44-93)
# method-description: HPV1a E7 fragment binders on microarrays, primary screen, biochemical, small-molecule microarray, residues 44-93, 635 nm fluorescence (AID 1108);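 also: E7 fragment applied at 1 µg/mL in TBST for 1 h at 4 C; score combines spot fluorescence with its signal to noise ratio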
# measurement-parameters: small-molecule microarray binding, fluorescence 635 nm; higher = more signal
Numbers only.

// below: answered compounds
| compound | composite z-score |
| --- | --- |
| CC(=O)O[C@H]1C2=CO[C@H](C)[C@H]3[C@H]4C5=C([C@H](O)[C@H]6O[C@H]6C5=O)[C@H](OC4C)[C@@]23C(=O)[C@@H]2O[C@@H]21 (stereo not given in full) | -0.361 |
| CO[C@H]1COC(=O)[C@@H](C)COC(=O)[C@@H](OCc2ccccc2)C=C[C@@H]1C | -0.193 |
| CCN1C(=O)[C@H]2[C@H]3[C@H](O)[C@H](O)CC(=O)[C@H]3CC[C@H]2C1=O | 0.566 |
| O=C(NN=C1C[C@@H](O)[C@@H](O)[C@@H]2[C@@H]3C(=O)N(Cc4ccccc4)C(=O)[C@@H]3CC[C@@H]12)OCc1ccccc1 | -0.572 |

Okay, next one:
### Prompt Complete the entry with composite z-score for `O=C1C[C@@H](O)[C@@H](O)[C@@H]2[C@@H]3C(=O)N(C[C@@H]4CCCO4)C(=O)[C@@H]3CC[C@H]12`
### Response 0.265

====

# Tested on: Chordin-like protein 2 (CHRDL2)
# method-description: CHRDL2 small-molecule binders, primary screen, biochemical, small-molecule microarray, 635 nm fluorescence (AID 1126);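 also: printed compound slides probed with Chrdl2 protein at 4 µg/mL for 1 h at 4 C; score merges 667 nm emission intensity with signal to noise over three replicate slides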
# measurement-parameters: small-molecule microarray binding, fluorescence 635 nm; higher = more signal
Mark Not satisfied for composite z-score values under 0.4, and Satisfied for everything at or above.

| compound | class-name |
| --- | --- |
| COC(=O)[C@@H]1CC[C@@H](C)[C@H](c2ccc(Br)cc2)N1 | Not satisfied |
| COCOc1ccc(Br)cc1C(=O)[C@@H]1O[C@H]1c1cccc(OC)c1 | Satisfied |

### Prompt Would you say `O=C(NN=C1C[C@@H](O)[C@@H](O)[C@@H]2[C@@H]3C(=O)N(C4CCCCC4)C(=O)[C@@H]3CC[C@@H]12)OCc1ccccc1` shows composite z-score at minimum 0.4?
### Response Satisfied

### Prompt Would you say `CC(C)=NO[C@H](C)c1cn([C@H](CO)Cc2ccccc2)nn1` shows composite z-score at minimum 0.4?
### Response Not satisfied

### Prompt Would you say `C#CCCCON=C1C[C@@H](O)[C@@H](O)[C@@H]2[C@@H]3C(=O)N(C(C)(C)C)C(=O)[C@@H]3CC[C@H]12` shows composite z-score at minimum 0.4?
### Response Satisfied

### Prompt Would you say `COC(=O)CC=C[C@@H](C)[C@@H](C=NO[C@@H]1O[C@H](COC(C)=O)[C@@H](OC(C)=O)[C@H](OC(C)=O)[C@H]1OC(C)=O)NS(=O)(=O)c1ccc(C)cc1` shows composite z-score at minimum 0.4?
### Response Not satisfied

### Prompt Would you say CCOC(=O)[C@H](Cc1ccccc1)NC(=O)CCC1CC(OC(=O)NCCc2ccc(F)cc2)CC2(CCCC(COC(=O)NCC3CCCCC3)O2)O1 (some centres not stated) shows composite z-score at minimum 0.4?
### Response Satisfied

### Prompt Would you say `C#CCCCON=C1C[C@@H](O)[C@@H](O)[C@@H]2[C@@H]3C(=O)N(Cc4ccccc4)C(=O)[C@@H]3CC[C@@H]12` shows composite z-score at minimum 0.4?
### Response Not satisfied

### Prompt Would you say CC(=O)OC[C@H]1OC(ON=CC[C@@H]2C=C[C@H](OC(C)=O)[C@@H](COC(C)=O)O2)[C@H](OC(C)=O)[C@@H](OC(C)=O)[C@@H]1OC(C)=O (some centres not stated) shows composite z-score at minimum 0.4?
### Response Not satisfied

### Prompt Would you say `COc1ccc(O[C@H]2C=C[C@@H](c3ccccc3)O[C@@H]2CON=C(C)CCC(=O)OC[C@H]2O[C@H](c3ccccc3)C=C[C@@H]2Oc2ccc(OC)cc2)cc1` shows composite z-score at minimum 0.4?
### Response Not satisfied

### Prompt Would you say CCOC(=O)[C@H](Cc1ccccc1)NC(=O)CCC1CC(OC(=O)NCCc2ccc(F)cc2)CC2(CCCC(COC(=O)NCCOC)O2)O1 (some centres not stated) shows composite z-score at minimum 0.4?
### Response Satisfied

### Prompt Would you say `COc1ccc(O[C@H]2C=C[C@@H](c3ccccc3)O[C@@H]2CON=CC[C@@H]2C=C[C@H](OC(C)=O)[C@@H](COC(C)=O)O2)cc1` shows composite z-score at minimum 0.4?
### Response Not satisfied

### Prompt Would you say `C#CCCCON=C1C[C@@H](O)[C@@H](O)[C@@H]2[C@@H]3C(=O)N(c4cccc(Oc5ccccc5)c4)C(=O)[C@@H]3CC[C@H]12` shows composite z-score at minimum 0.4?
### Response Not satisfied

Taken from PubChem BioAssay.
